The measurements presented in this section are drawn from PubChem BioAssay.

assay: sensitizers of A549 cells to miR-34 induction, primary screen, imaging, A549 dox-inducible miR-34, nuclei and caspase counts (AID 1347080); details: A549 miR-34 inducible, Hoechst nuclei count, 48 h; measured here: relative caspase fold change +Dox/-Dox
Observed Property: fold change

Item Smiles | Observed Property | Reported Result
CCCC[C@@H](CC)COC(=O)C(C#N)=C(c1ccccc1)c1ccccc1 | fold change | 0.819
CC(=O)CCCCn1cnc2c1c(=O)n(C)c(=O)n2C | fold change | 1.72
O=c1[nH]nc(Sc2ncc([N+](=O)[O-])s2)n1-c1ccc2c(c1)OCCO2 | fold change | 0.969
C/C(=C\C(=O)OCCCCCCCCC(=O)O)C[C@@H]1OC[C@H](C[C@@H]2O[C@H]2[C@@H](C)[C@H](C)O)[C@@H](O)[C@H]1O | fold change | 0.766

====

assay: growth inhibition of CRL1545 osteosarcoma cells, cell-based, cisplatin and BGB IC20 combos (AID 1671464); conditions: single agent, at 5 µM, stronger effect = higher value;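 note: cells exposed to compound for 96 hours before readout; 0% = vehicle DMSO and 100% = high DMSO killing control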
Measured inhibition accompanies every entry in the list below.
Observed Property: inhibition

Item Smiles | Reported Result
CC(C)N=c1cc2n(-c3ccc(Cl)cc3)c3ccccc3nc-2cc1Nc1ccc(Cl)cc1 | -18.2%
O=c1[nH]c(-c2ccc(C(F)(F)F)cc2)nc2c1CSCC2 | -18.2%
CCc1c2c(nc3ccc(O)cc13)-c1cc3c(c(=O)n1C2)COC(=O)[C@]3(O)CC | 99.8%
CO[C@H]1/C=C/O[C@@]2(C)Oc3c(C)c(O)c4c(O)c(c(C=NN5CCN(C)CC5)c(O)c4c3C2=O)NC(=O)/C(C)=C\C=C\[C@H](C)[C@H](O)[C@@H](C)[C@@H](O)[C@@H](C)[C@H](OC(C)=O)[C@@H]1C | 27.5%

====

Measured fluorescence ratio (interference) accompanies every entry in the list below.
assay: Cy5 fluorescence quenching or enhancement artefacts, artefact control for HCV NS3 helicase inhibitor project, biochemical, LOPAC1280 (AID 687037); conditions: Cy5-DNA-NS3h complex fluorescence interference counterscreen

Compound | fluorescence ratio (interference)
COc1cc2c(CCNC(C)=O)c[nH]c2cc1Cl | 1
c1ccc(C(NCc2cccnc2)(c2ccccc2)c2ccccc2)cc1 | 1
COc1ccc(CCN(C)CCc2ccc(OC)c(OC)c2)cc1OC | 1
O=c1[nH]c2cc([N+](=O)[O-])c([N+](=O)[O-])cc2[nH]c1=O | 1
O=C(O)C1=CCCN(CCON=C(c2ccccc2)c2ccccc2)C1 | 1
O=C(O)C1=CC(=C(c2ccc(O)c(C(=O)O)c2)c2ccc(O)c(C(=O)O)c2)C=CC1=O | 1
CCC(NC(C)C)C(O)c1ccc(O)c(O)c1 (configuration not stated) | 0.9
CN(C)CCCC1(c2ccc(F)cc2)OCc2cc(C#N)ccc21 (configuration not stated) | 1
N[C@@H](CS(=O)O)C(=O)O | 0.9
COc1cc([C@@H]2c3cc4c(cc3[C@H](O)C3COC(=O)[C@@H]32)OCO4)cc(OC)c1OC (some centres not stated) | 1
CN1CCC[C@H]1c1cccnc1 | 1
CCCN(CC1CC1)c1nc(C)nc(Nc2c(Cl)cc(Cl)cc2Cl)c1Cl | 1

====

tested on: Aerobactin synthetase IucA (Klebsiella pneumoniae); experiment: IucA aerobactin synthetase inhibitors, biochemical, Tocris library, absorbance (AID 1345561); settings: purified IucA enzyme assay, absorbance (OD) read-out; stronger effect = lower value;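 tested at 8 µM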;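 note: 100% = enzyme without compound and 0% = no enzyme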
Measured remaining activity accompanies every entry in the list below.

Compound | remaining activity, %
COC1CCC(C(=O)c2ccc3nc4c(cc3c2)CCCO4)CC1 (stereo not drawn) | 99.8
N=C(N)SCCc1cnc[nH]1 | 120
NC(=O)c1ccc2[nH]ccc2c1 | 89.5
CC(CCCCC(=O)Nc1ccc(C(F)(F)F)cc1)NCCc1cnc[nH]1 (stereo not drawn) | 92.5
CCCCC[C@H](O)/C=C/[C@H]1[C@H](O)CC(=O)[C@@H]1CCCCCCC(=O)O | 115
Brc1c(Br)c(Br)c2n[nH]nc2c1Br | 108
NC(N)=NC(N)=Nc1cccc(Cl)c1 | 77.4
CN(C)c1ccc(/C=C2\C(=O)Nc3ccccc32)cc1 | 109
CCN(CC)CCOC(=O)c1cc(Cl)c(N)cc1OC | 95
CCOc1cc(C(=O)Nc2ccc(Cl)c(-c3nc4ccccc4[nH]3)c2)cc(OCC)c1OCC | 119
C[C@H](NC(=O)Cc1cc(F)cc(F)c1)C(=O)N[C@H](C(=O)OC(C)(C)C)c1ccccc1 | 99.3
C=C1/C(=C\C=C2/CCC[C@]3(C)[C@@H]([C@H](C)/C=C/[C@@H](O)C4CC4)CC[C@@H]23)C[C@@H](O)C[C@@H]1O | 98
O=C1NC(c2cccc([N+](=O)[O-])c2)=CCN1c1ccccc1O | 111
CN(C)CCCC1(c2ccc(F)cc2)OCc2cc(C#N)ccc21 (stereo not drawn) | 108
COC(=O)C[C@](O)(CCCC(C)(C)O)C(=O)O[C@@H]1C(OC)=C[C@]23CCCN2CCc2cc4c(cc2[C@H]13)OCO4 | 98.2
Oc1ccc(Nc2nc(-c3ccc(Cl)cc3)cs2)cc1 | 89
COC(=O)c1c(C)[nH]c(C)c1C(=O)c1ccccc1Cc1ccccc1 | 110
O=c1[nH]c2cc([N+](=O)[O-])c([N+](=O)[O-])cc2[nH]c1=O | 109
C/C=C/CC(C)C(O)C1C(=O)NC(CC)C(=O)N(C)CC(=O)N(C)C(CC(C)C)C(=O)NC(C(C)C)C(=O)N(C)C(CC(C)C)C(=O)NC(C)C(=O)NC(C)C(=O)N(C)C(CC(C)C)C(=O)N(C)C(CC(C)C)C(=O)N(C)C(C(C)C)C(=O)N1C (stereo not drawn) | 111
Clc1cccc(Nc2nnc(-c3ccccc3)c3ccccc23)c1 | 100
N#Cc1cc2nc(O)c(O)nc2cc1[N+](=O)[O-] | 114
CCOc1ccc(Nc2nc(-c3c(C)nc4ccccn34)cs2)cc1 | 103
COc1ccc(Br)cc1S(=O)(=O)NC(=O)/C=C/c1ccccc1Cc1ccc2ccccc2c1 | 102
Cc1ccc([N+](=O)[O-])cc1S(=O)(=O)N(C)C | 93.4
COc1cc2c(cc1O)CC[C@@H]1[C@@H]2CC[C@]2(C)[C@@H](O)CC[C@@H]12 | 112
c1ccc(C(NCc2cccnc2)(c2ccccc2)c2ccccc2)cc1 | 95
N#C/C(=C(/N)Sc1ccc(N)cc1)c1ccccc1C(F)(F)F | 113
NS(=O)(=O)C#Cc1ccccc1 | 110
O=C1Cc2c([nH]c3ccc(Br)cc23)-c2ccccc2N1 | 115
CNC(=O)c1cc2c(cn1)[nH]c1ccccc12 | 99.6
O=C(O)Cc1cccc(OCCCN(Cc2cccc(C(F)(F)F)c2Cl)CC(c2ccccc2)c2ccccc2)c1 | 110
Oc1cc2c(cc1O)CN(C(=S)NCCc1ccc(Cl)cc1)CCC2 | 72.4
CC(C)(C)c1ccc(S(=O)(=O)/C=C/C#N)cc1 | 114
Nc1ncnc2n[nH]c(Nc3ccc(F)cc3)c12 | 105
CCCc1c(-c2ccc(O)cc2)nn(-c2ccc(O)cc2)c1-c1ccc(O)cc1 | 109
COc1ccccc1N1CCN(CCN2C(=O)CC3(CCCC3)CC2=O)CC1 | 96.2
COc1cc2c(CCNC(C)=O)c[nH]c2cc1Cl | 94.8
CCCn1c(=O)c(C)cn2nc(N)nc12 | 123
CC(C)N(CCC(=O)c1ccc2ccccc2c1)Cc1ccccc1 | 113
CC(Oc1ccc(O)cc1)(P(=O)(O)O)P(=O)(O)O | 115
CC(C)NC[C@H](O)COc1cccc2[nH]ccc12 | 102
CC(C)(CO)Cc1cc(C(C)(C)C)c(O)c(C(C)(C)C)c1 | 101
COc1ccc([C@@H]2CNC(=O)C2)cc1OC1CCCC1 | 102

====

experiment: enhancers of glutamate uptake in motor neurons, MN-1 cell line (AID 1612); conditions: MN-1 motor neuron cells, stronger effect = higher value;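 note: tested at 1 µM final; 0% = mean of DMSO vehicle wells on each plate; positive means more glutamate uptake than control and negative means less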
Measured glutamate uptake change accompanies every entry in the list below.

Compound | glutamate uptake change, %
N[C@@H]1[C@@H](O)[C@H](O)[C@@H](CO)O[C@H]1O | 9.21
CCCC(=O)Nc1ncnc2c1ncn2C1O[C@@H]2COP(=O)(O)O[C@H]2[C@H]1OC(=O)CCC (some centres undefined) | 4.01
NC(=O)c1cc[n+](CC2=C(C(=O)O)N3C(=O)C(NC(=O)C(c4ccccc4)S(=O)(=O)[O-])C3SC2)cc1 (centres undefined) | -27.4
CO/N=C(/C(=O)NC1C(=O)N2C(C(=O)O)=C(COC(N)=O)CSC12)c1ccco1 (centres undefined) | 14.5
CNC[C@@H](O)c1ccc(O)c(O)c1 | -6.16
O=C(O)CCCCC1SCC2NC(=O)NC21 (centres undefined) | -4.28
C[C@]12C=CC(=O)C=C1CCC1C3C[C@@H](O)[C@](O)(C(=O)CO)[C@@]3(C)C[C@H](O)[C@@]12F (some centres undefined) | -1.32
NC(N)=Nc1nc(CSCC/C(N)=N\S(N)(=O)=O)cs1 | -4.06
C[C@H]1CC2C([C@@H](O)C[C@@]3(C)C2CC[C@]3(O)C(=O)CO)[C@@]2(C)C=CC(=O)C=C12 (some centres undefined) | 14.1
